Values compiled from PubChem BioAssay AID1745844.

System: rodent lifetime carcinogenesis bioassay, tumor incidence TD50
Protocol notes: carcinogenic potency in animals, long-term in vivo studies, CPDB compilation (AID 1745844)
Condition: rat; strain Fischer 344; males; in drinking water; site: liver; lesion: neoplastic nodule; dosed 100 weeks; study length 130 weeks
Recorded metric: TD50

Look up and report measured TD50 (rodent lifetime carcinogenesis bioassay, tumor incidence TD50) for the following compound: `C=COC(C)=O`
132 mg/kg/day

###

System: rodent lifetime carcinogenesis bioassay, tumor incidence TD50
Protocol notes: carcinogenic potency in animals, long-term in vivo studies, CPDB compilation (AID 1745844)
Condition: rat; strain Fischer 344; females; by gavage; site: forestomach; lesion: squamous-cell carcinoma; dosed 104 weeks; study length 107 weeks
Recorded metric: TD50

Consider the compound c1ccc(C2CO2)cc1 (stereo unspecified) and give its recorded TD50.
114 mg/kg/day

###

Assignment: determine reported TD50 for the given molecules.
Tested on: rodent lifetime carcinogenesis bioassay, tumor incidence TD50
Protocol notes: carcinogenic potency in animals, long-term in vivo studies, CPDB compilation (AID 1745844)
Condition: mouse; strain B6C3F1; females; by gavage; site: liver; lesion: hepatocellular carcinoma; dosed 78 weeks; study length 90 weeks

Answer with the recorded TD50 for the molecule listed here: `ClC=C(Cl)Cl`
1930 mg/kg/day

Specify TD50 for `ClCC(Cl)Cl` and stop.
47.6 mg/kg/day

Write down TD50 measured for item `ClC(Cl)=C(Cl)Cl`
75.6 mg/kg/day

###

Tested on: rodent lifetime carcinogenesis bioassay, tumor incidence TD50
Protocol notes: carcinogenic potency in animals, long-term in vivo studies, CPDB compilation (AID 1745844)
Condition: rat; strain Chester Beatty albino; males; in drinking water; site: esophagus; lesion: squamous-cell carcinoma; dosed 73 weeks; study length 73 weeks
Recorded metric: TD50

Assign TD50 to the following record: `O=NN1CCCC[C@H]1c1cccnc1`
86 mg/kg/day

###

System: rodent lifetime carcinogenesis bioassay, tumor incidence TD50
Protocol notes: carcinogenic potency in animals, long-term in vivo studies, CPDB compilation (AID 1745844)
Condition: mouse; strain B6C3F1; males; by gavage; site: any site (literature study); lesion: several types; types named in the paper; dosed 78 weeks; study length 78 weeks
Activity calls are given as the source filed them. How the calls were made is not given here.
Recorded metric: TD50

Specify reported TD50 for the molecule shown: CC1=C(C(=O)OC(C)C)C(c2cccc([N+](=O)[O-])c2)C(C(=O)OC2CN(C(c3ccccc3)c3ccccc3)C2)=C(N)N1 (stereo unspecified)
83.5 mg/kg/day (inactive)

###

Test system: rodent lifetime carcinogenesis bioassay, tumor incidence TD50
Protocol notes: carcinogenic potency in animals, long-term in vivo studies, CPDB compilation (AID 1745844)
Condition: rat; strain Fischer 344; males; by gavage; site: adrenal medulla; lesion: pheochromocytoma, benign; dosed 103 weeks; study length 104 weeks
Recorded metric: TD50

Using known records, supply TD50 for `c1ccoc1`
12.7 mg/kg/day

Please list TD50 recorded for the compound `COc1c(Cl)c(Cl)c(Cl)c(Cl)c1Cl`
24.8 mg/kg/day

###

Tested on: rodent lifetime carcinogenesis bioassay, tumor incidence TD50
Protocol notes: carcinogenic potency in animals, long-term in vivo studies, CPDB compilation (AID 1745844)
Condition: rat; strain Fischer 344; males; by gavage; site: lung; lesion: alveolar/bronchiolar adenoma; dosed 30 weeks; study length 55 weeks
Recorded metric: TD50

Quote TD50 reported for `CCN(C)N=O` please.
0.242 mg/kg/day

###

Test system: rodent lifetime carcinogenesis bioassay, tumor incidence TD50
Protocol notes: carcinogenic potency in animals, long-term in vivo studies, CPDB compilation (AID 1745844)
Condition: monkey; strain Rhesus [Macaca mulatta]; both sexes; in feed; site: palate, soft; lesion: squamous-cell carcinoma; dosed 928 weeks; study length 1139 weeks
Recorded metric: TD50 (mg/kg/day)
Value expressed in mg/kg/day; do not type the unit.

Give TD50 for `CN(N=O)C(N)=O`
102

###

Tested on: rodent lifetime carcinogenesis bioassay, tumor incidence TD50
Protocol notes: carcinogenic potency in animals, long-term in vivo studies, CPDB compilation (AID 1745844)
Condition: rat; strain MRC-Wistar; males; in drinking water; site: all sites; lesion: malignant lymphoma; dosed 52 weeks; study length 70 weeks
Recorded metric: TD50

Give the reported TD50 for this compound. `NC(=O)N(CCO)N=O`
2.03 mg/kg/day

###

Test system: rodent lifetime carcinogenesis bioassay, tumor incidence TD50
Protocol notes: carcinogenic potency in animals, long-term in vivo studies, CPDB compilation (AID 1745844)
Condition: rat; strain Fischer 344; males; by gavage; site: liver; lesion: hepatocellular adenoma + hepatocellular carcinoma + neoplastic nodule; dosed 103 weeks; study length 106 weeks
Could you please report measured TD50 for the items listed next?
All answers are understood in mg/kg/day, so give the number only.

Give the measured TD50 for CC(Cl)CCl (configuration not stated)
2570

Please report the measured TD50 for `C=CCOC(=O)CC(C)C`
264

###

Assign TD50 to each entry below.
Tested on: rodent lifetime carcinogenesis bioassay, tumor incidence TD50
Protocol notes: carcinogenic potency in animals, long-term in vivo studies, CPDB compilation (AID 1745844)
Condition: rat; strain BR 46; males; i.v.; site: any site (literature study); lesion: malignant tumor; dosed 52 weeks; study length 104 weeks
Calls of active or inactive are those of the source. The rule behind the calls is not given here. Numbered stars: 1 amine (or outer) side, 2 acyl side, 3 side chain; on linkers, the order of the positions; unused ones are H or OH. Bridge positions count the residues as written; N and C are the ends. Square brackets hold non-standard residues; d marks the D form. Peptide text beside a SMILES is read from it. I, II: the chains in the order shown. Actinocin(1to9) = Cc1c2oc3c(C)ccc(C(=O)[*:2])c3nc-2c(C(=O)[*:1])c(N)c1=O; NMeV = CN[C@H](C(=O)O)C(C)C; Sar = CNCC(=O)O

State recorded TD50 with rodent lifetime carcinogenesis bioassay, tumor incidence TD50, entry `CN[C@H]1CCc2cc(OC)c(OC)c(OC)c2-c2ccc(OC)c(=O)cc21` , no comment.
0.129 mg/kg/day (inactive)

Give rodent lifetime carcinogenesis bioassay, tumor incidence TD50 TD50 for the following compound: CC[C@H](C)[C@@H]1NC(=O)[C@@H](NC(=O)c2c3nc4c(C(=O)N[C@@H]5C(=O)N[C@@H](C(C)C)C(=O)N6CCC[C@H]6C(=O)N(C)CC(=O)N(C)[C@@H](C(C)C)C(=O)O[C@@H]5C)ccc(C)c4oc-3c(C)c(=O)c2N)[C@@H](C)OC(=O)[C@H](C(C)C)N(C)C(=O)CN(C)C(=O)[C@@H]2CCCN2C1=O (I: TIP[Sar][NMeV] / II: TVP[Sar][NMeV]; ester I:1-I:C, II:1-II:C; linker I:N-II:N via Actinocin(1to9))
10.8 mg/kg/day

Under rodent lifetime carcinogenesis bioassay, tumor incidence TD50: report TD50 of `CNNCc1ccc(C(=O)NC(C)C)cc1` .
3.93 mg/kg/day

Under rodent lifetime carcinogenesis bioassay, tumor incidence TD50: report TD50 of `CN(Cc1cnc2nc(N)nc(N)c2n1)c1ccc(C(=O)N[C@@H](CCC(=O)O)C(=O)O)cc1` .
2.96 mg/kg/day (inactive)

Give measured TD50 for `S=P(N1CC1)(N1CC1)N1CC1` (rodent lifetime carcinogenesis bioassay, tumor incidence TD50).
0.303 mg/kg/day

Print rodent lifetime carcinogenesis bioassay, tumor incidence TD50 TD50 for `O=C1C=C(N2CC2)C(=O)C(N2CC2)=C1N1CC1` .
0.00677 mg/kg/day

###

Tested on: rodent lifetime carcinogenesis bioassay, tumor incidence TD50
Protocol notes: carcinogenic potency in animals, long-term in vivo studies, CPDB compilation (AID 1745844)
Condition: hamster; strain Syrian Golden; females; by gavage; site: trachea; lesion: adenoma; dosed 50 weeks; study length 104 weeks
Recorded metric: TD50 (mg/kg/day)
Could you give me the number in mg/kg/day? Just the number is fine.

Tell me measured TD50 for O=NN(CCO)CC(O)CO (stereo unspecified) please.
52.7

###

Test system: rodent lifetime carcinogenesis bioassay, tumor incidence TD50
Protocol notes: carcinogenic potency in animals, long-term in vivo studies, CPDB compilation (AID 1745844)
Condition: rat; strain Bethesda black; both sexes; in feed; site: liver; lesion: several types; types named in the paper; dosed 104 weeks; study length 104 weeks
Recorded metric: TD50
Please state the value followed by its unit.

Specify reported TD50 for the compound shown: `Cc1cc(C)c(N=Nc2c(O)c(S(=O)(=O)O)cc3cc(S(=O)(=O)O)ccc23)cc1C`
746 mg/kg/day

###

I'd be grateful if you could share measured TD50 for these entries.
System: rodent lifetime carcinogenesis bioassay, tumor incidence TD50
Protocol notes: carcinogenic potency in animals, long-term in vivo studies, CPDB compilation (AID 1745844)
Condition: rat; strain Sprague-Dawley; females; in feed; site: liver; lesion: hepatocellular adenoma; dosed 104 weeks; study length 104 weeks
Active and inactive are the calls of the source. No rule for the calls is given here.

Identify measured TD50 associated with CCN(CC)C(=O)Nc1ccc(OCC(O)CNC(C)(C)C)c(C(C)=O)c1 (stereo not given)
38100 mg/kg/day (inactive)

// fetch TD50 given entry `CN(C)CCOc1ccc(/C(=C(/CCCl)c2ccccc2)c2ccccc2)cc1`
344 mg/kg/day (inactive)

Entry `Clc1cccc(-c2ccc(Cl)c(Cl)c2Cl)c1Cl` needs its TD50 filled in; supply it.
3.07 mg/kg/day

Please look at this compound and report its TD50: `Clc1ccc(-c2ccc(Cl)c(Cl)c2Cl)c(Cl)c1Cl`
6.43 mg/kg/day

Please indicate TD50 recorded for `Clc1cccc(-c2cc(Cl)cc(Cl)c2)c1`
59.3 mg/kg/day
